# Assay remarks: GC-MS/MS levels of PCB95 and total hydroxylated metabolites in intestinal content of orally exposed mice
# Applied conditions: female, CYP2A6-transgenic/Cyp2abfgs-null (KI), mouse, intestinal content (distal colon and rectum), po, 1 mg/kg
# Experimental: The intestinal content samples used in this study were generated as part of a published study of the atropselective disposition of PCB95 and its hydroxylated metabolites in mice.[48] […] This PCB dose is frequently used in PCB developmental neurotoxicity studies in rodent models.[21],[49]−[52] […] PCB95 and total OH-PCB95 metabolite levels were determined in intestinal content samples after deconjugation of sulfate and glucuronide conjugates using published methods with modifications.[53] […]
Is concentration at 24 h at least 400 ng/g? Then YES. If not, NO.

INSERT INTO measurements (line_notation, label_value) VALUES
  ('Oc1c(O)c(Cl)c(-c2cc(Cl)ccc2Cl)c(Cl)c1Cl', 'YES'),
  ('Oc1cc(Cl)c(-c2cc(Cl)ccc2Cl)c(Cl)c1Cl', 'YES'),
  ('Clc1ccc(Cl)c(-c2c(Cl)ccc(Cl)c2Cl)c1', 'NO'),
  ('Oc1cc(Cl)c(Cl)c(-c2cc(Cl)ccc2Cl)c1Cl', 'YES'),
  ('Oc1c(Cl)cc(Cl)c(-c2cc(Cl)ccc2Cl)c1Cl', 'NO');

Proceed to the following item.
Check if concentration at 24 h >= 400 ng/g (inclusive). Item: Oc1cc(Cl)c(-c2c(Cl)ccc(Cl)c2Cl)cc1Cl
YES

====

# Assay remarks: GC-MS/MS levels of PCB95 and total hydroxylated metabolites in intestinal content of orally exposed mice
# Applied conditions: female, Cyp2abfgs-null (KO), mouse, intestinal content (distal colon and rectum), po, 1 mg/kg
Measurement kind: concentration at 24 h (ng/g)
Please state the figure in ng/g; there is no need to write the unit.

Some solved entries appear below for comparison.
INSERT INTO assay_data (line_notation, numeric_value) VALUES
  ('Clc1ccc(Cl)c(-c2c(Cl)ccc(Cl)c2Cl)c1', 26),
  ('Oc1cc(Cl)c(-c2cc(Cl)ccc2Cl)c(Cl)c1Cl', 192),
  ('Oc1c(Cl)cc(Cl)c(-c2cc(Cl)ccc2Cl)c1Cl', 14),
  ('Oc1cc(Cl)c(Cl)c(-c2cc(Cl)ccc2Cl)c1Cl', 359);

Field request: concentration at 24 h | item: Oc1c(O)c(Cl)c(-c2cc(Cl)ccc2Cl)c(Cl)c1Cl
527

Field request: concentration at 24 h | item: Oc1cc(Cl)c(-c2c(Cl)ccc(Cl)c2Cl)cc1Cl
414

====

# Assay remarks: GC-MS/MS levels of PCB95 and total hydroxylated metabolites in intestinal content of orally exposed mice
# Applied conditions: male, mouse, intestinal content (distal colon and rectum), po, 1 mg/kg
molecules and their reported concentration at 24 h
Numeric answer plus unit only.

Some solved entries appear below for comparison.
INSERT INTO measurements (molecule, result) VALUES
  ('Oc1cc(Cl)c(-c2cc(Cl)ccc2Cl)c(Cl)c1Cl [4-95, 2,2′,3,5′,6-pentachlorobiphenyl-4-ol]', '238 ng/g'),
  ('Oc1cc(Cl)c(Cl)c(-c2cc(Cl)ccc2Cl)c1Cl [5-95, 2,2′,3,5′,6-pentachlorobiphenyl-5-ol]', '424 ng/g'),
  ('Oc1c(O)c(Cl)c(-c2cc(Cl)ccc2Cl)c(Cl)c1Cl [4,5-95]', '1410 ng/g'),
  ('Clc1ccc(Cl)c(-c2c(Cl)ccc(Cl)c2Cl)c1 [PCB95, 2,2′,3,5′,6-pentachlorobiphenyl]', '39 ng/g'),
  ('Oc1cc(Cl)c(-c2c(Cl)ccc(Cl)c2Cl)cc1Cl [4''-95, 2,2′,3,5′,6-pentachlorobiphenyl-4′-ol]', '452 ng/g');

Proceed to the following item.
Field request: concentration at 24 h | item: Oc1c(Cl)cc(Cl)c(-c2cc(Cl)ccc2Cl)c1Cl [3-103]
7 ng/g

====

compounds and their reported log10(concentration at 24 h)
# Assay remarks: GC-MS/MS levels of PCB95 and total hydroxylated metabolites in intestinal content of orally exposed mice
# Applied conditions: female, mouse, intestinal content (distal colon and rectum), po, 1 mg/kg
Note: values are log10 of concentration at 24 h expressed in ng/g.

Some solved entries appear below for comparison.
INSERT INTO results (line_notation, measurement_kind, numeric_value) VALUES
  ('Oc1c(O)c(Cl)c(-c2cc(Cl)ccc2Cl)c(Cl)c1Cl', 'log10(concentration at 24 h)', 3.04),
  ('Oc1cc(Cl)c(Cl)c(-c2cc(Cl)ccc2Cl)c1Cl', 'log10(concentration at 24 h)', 2.74),
  ('Oc1c(Cl)cc(Cl)c(-c2cc(Cl)ccc2Cl)c1Cl', 'log10(concentration at 24 h)', 1.15);

Field request: log10(concentration at 24 h) | item: Oc1cc(Cl)c(-c2cc(Cl)ccc2Cl)c(Cl)c1Cl
2.39

Field request: log10(concentration at 24 h) | item: Oc1cc(Cl)c(-c2c(Cl)ccc(Cl)c2Cl)cc1Cl
2.55

Field request: log10(concentration at 24 h) | item: Clc1ccc(Cl)c(-c2c(Cl)ccc(Cl)c2Cl)c1
1.41

====

# Assay remarks: GC-MS/MS levels of PCB95 and total hydroxylated metabolites in intestinal content of orally exposed mice
# Applied conditions: male, CYP2A6-transgenic/Cyp2abfgs-null (KI), mouse, intestinal content (distal colon and rectum), po, 1 mg/kg
Measurement kind: concentration at 24 h (ng/g)
Please state the figure in ng/g; there is no need to write the unit.

Some solved entries appear below for comparison.
INSERT INTO assay_data (line_notation, measurement_kind, units, numeric_value) VALUES
  ('Clc1ccc(Cl)c(-c2c(Cl)ccc(Cl)c2Cl)c1', 'concentration at 24 h', 'ng/g', 33),
  ('Oc1cc(Cl)c(Cl)c(-c2cc(Cl)ccc2Cl)c1Cl', 'concentration at 24 h', 'ng/g', 300),
  ('Oc1cc(Cl)c(-c2c(Cl)ccc(Cl)c2Cl)cc1Cl', 'concentration at 24 h', 'ng/g', 298),
  ('Oc1cc(Cl)c(-c2cc(Cl)ccc2Cl)c(Cl)c1Cl', 'concentration at 24 h', 'ng/g', 160),
  ('Oc1c(O)c(Cl)c(-c2cc(Cl)ccc2Cl)c(Cl)c1Cl', 'concentration at 24 h', 'ng/g', 570);

Field request: concentration at 24 h | item: Oc1c(Cl)cc(Cl)c(-c2cc(Cl)ccc2Cl)c1Cl
6

====

# Assay remarks: GC-MS/MS levels of PCB95 and total hydroxylated metabolites in intestinal content of orally exposed mice
# Applied conditions: male, Cyp2abfgs-null (KO), mouse, intestinal content (distal colon and rectum), po, 1 mg/kg
Measurement kind: concentration at 24 h (ng/g)
Please state the figure in ng/g; there is no need to write the unit.

Some solved entries appear below for comparison.
INSERT INTO measurements (line_notation, measurement_kind, numeric_value) VALUES
  ('Clc1ccc(Cl)c(-c2c(Cl)ccc(Cl)c2Cl)c1', 'concentration at 24 h', 139),
  ('Oc1cc(Cl)c(-c2c(Cl)ccc(Cl)c2Cl)cc1Cl', 'concentration at 24 h', 447),
  ('Oc1c(Cl)cc(Cl)c(-c2cc(Cl)ccc2Cl)c1Cl', 'concentration at 24 h', 6),
  ('Oc1cc(Cl)c(-c2cc(Cl)ccc2Cl)c(Cl)c1Cl', 'concentration at 24 h', 177),
  ('Oc1cc(Cl)c(Cl)c(-c2cc(Cl)ccc2Cl)c1Cl', 'concentration at 24 h', 333);

Proceed to the following item.
Field request: concentration at 24 h | item: Oc1c(O)c(Cl)c(-c2cc(Cl)ccc2Cl)c(Cl)c1Cl
1030

The measurements presented in this section are drawn from paper PMC11653397.
